Target Desc: human insulin receptor (HIR) (human) (UniProt P06213)
Assay Method Text: HIR Kd; method not restated (Example 3: 125I-insulin displacement, solubilised HIR)
Measured Metric: Kd (nM)

(I) RB521 (peptide) peptide: MADYKDDDDKGSLDESFYDWFERQLGKKGGSGGSGSLDESFYDWFERQLGKKAAAGAPVPYPDPLEPRPG
(II) Fusion 437 (MBP fusion of H2C) (protein, not shown: large carriers; small tags and cut ends) NNNNLGIEGRISEFIEGRAQPAMAFHENFYDWFVRQVSAAAGAPVPYPDPLEPRAA
(III) Fusion 463 (MBP fusion of H2C-3aa-H2C) (protein, not shown: large carriers; small tags and cut ends) NNNNLGIEGRISEFIEGRAQPAMAFHENFYDWFVRQVSGGSFHENFYDWFVRQVSAAAGAPVPYPDPLEPRAA
QUERY: Please produce an ascending ranking of these binders based on Kd. # output: labels, in the requested order
RESULT: I, II, III
(I: 44 nM, II: 83 nM, III: 960 nM)
